Target: T1, human RXFP1 receptor (human, UniProt Q9HBX9 1-757)
T1 sequence (looked up): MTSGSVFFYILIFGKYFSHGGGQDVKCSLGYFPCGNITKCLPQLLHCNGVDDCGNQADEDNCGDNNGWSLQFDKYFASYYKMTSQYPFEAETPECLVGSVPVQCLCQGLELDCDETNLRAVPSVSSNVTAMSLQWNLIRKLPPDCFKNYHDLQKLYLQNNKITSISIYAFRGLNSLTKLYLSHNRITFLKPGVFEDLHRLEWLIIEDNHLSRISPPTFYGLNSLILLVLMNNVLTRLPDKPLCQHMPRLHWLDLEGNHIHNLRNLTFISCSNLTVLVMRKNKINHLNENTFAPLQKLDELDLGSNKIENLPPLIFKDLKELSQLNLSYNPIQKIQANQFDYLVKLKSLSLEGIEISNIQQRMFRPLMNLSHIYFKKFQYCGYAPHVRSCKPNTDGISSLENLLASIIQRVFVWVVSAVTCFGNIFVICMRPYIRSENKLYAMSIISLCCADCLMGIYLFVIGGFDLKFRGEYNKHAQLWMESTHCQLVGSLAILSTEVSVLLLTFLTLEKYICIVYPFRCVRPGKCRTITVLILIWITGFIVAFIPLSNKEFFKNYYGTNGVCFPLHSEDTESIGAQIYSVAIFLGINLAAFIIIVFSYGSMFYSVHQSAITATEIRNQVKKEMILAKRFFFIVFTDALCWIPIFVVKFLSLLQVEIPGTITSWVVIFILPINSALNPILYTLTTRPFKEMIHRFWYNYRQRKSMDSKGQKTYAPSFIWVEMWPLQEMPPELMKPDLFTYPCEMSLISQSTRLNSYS
Assay: cell-based or functional assay
QUANTITY_MEASURED: EC50 (nM), cAMP production in THP1 cells, 1% HSA

# count of solved cases: 2
BINDER	MEAS_VALUE
0064 (other, Single-chain fusion: anti-HSA VHH, linker, relaxin-2 B chain, linker, relaxin-2 A chain; also called fusion protein 0064) EVQLLESGGGLVQPGGSLRLSCAASGNTYLTSCMGWFRQAPGKEREGVSSIYTVGGSTFYTNSVKGRFTISRDNSKNTLYLQMNSLQPEDTAVYYCAAGSPARCRLRDPTTFDYWGQGTLVTVSSGGGGQGGGGQGGGGQGGGGQGGGGQSWMEEVIKLCGRELVRAQIAICGMSTWSGGGSGGSGGGQLYSALANKCCHVGCTKRSLARFC	19.8 nM
0051 (other, Single-chain fusion: anti-HSA VHH, linker, relaxin-2 B chain, linker, relaxin-2 A chain; also called fusion protein 0051; molecule 0051) EVQLLESGGGLVQPGGSLRLSCAASGFTFLTSCMGWFRQAPGKEREGVSSIYTVGGSTFYTNSVKGRFTISRDNSKNTLYLQMNSLRAEDTAVYYCAAGSPARCRLRDPTTFDYWGQGTLVTVSSGGGGQGGGGQGGGGQGGGGQGGGGQSWMEEVIKLCGRELVRAQIAICGMSTWSGGGSGGSGGGQLYSALANKCCHVGCTKRSLARFC	28.4 nM

Please go through the list and note EC50 (nM), cAMP production in THP1 cells, 1% HSA for each binder.
1. 0065 (other, Single-chain fusion: anti-HSA VHH, linker, relaxin-2 B chain, linker, relaxin-2 A chain; also called fusion protein 0065) EVQLLESGGGLVQPGGSLRLSCAASGFTFLTSCMGWFRQAPGKEREGVSSIYTVGGSTFYTNSVKGRFTISRDNSKNTLYLQMNSLRPEDTAVYYCAAGSPARCRLRDPTTFDYWGQGTLVTVSSGGGGQGGGGQGGGGQGGGGQGGGGQSWMEEVIKLCGRELVRAQIAICGMSTWSGGGSGGSGGGQLYSALANKCCHVGCTKRSLARFC
2. 0052 (other, Single-chain fusion: anti-HSA VHH, linker, relaxin-2 B chain, linker, relaxin-2 A chain; also called fusion protein 0052) EVQLLESGGGLVQPGGSLRLSCAASGFTFLTSCMGWFRQAPGKEREGVSSIYTVGGSTFYTNSVKGRFTISRDNSKNTLYLQMNSLRAEDTAVYYCAAGSPARCRLRDPTTFDYWGQGTLVTVSSPGPAPGPAPGPAPGPAPGPAPGPAPGPAPGPASWMEEVIKLCGRELVRAQIAICGMSTWSGGGSGGSGGGQLYSALANKCCHVGCTKRSLARFC

1. 23 nM
2. 21.5 nM

Reference for the values: patent US20250312444A1
